# condition: in toluene, 278.15 K
reported-property: solubility (mole fraction)

       molecule_smiles           reported_property  endpoint_value
0  Cc1ccc2cc(Br)ccc2n1  solubility (mole fraction)         0.00817

* * *

# condition: in water, 283.15 K
reported-property: solubility (mole fraction)

       molecule_smiles           reported_property  endpoint_value
0  Cc1ccc2cc(Br)ccc2n1  solubility (mole fraction)         8.1e-06

* * *

# condition: in methanol, 318.15 K
reported-property: solubility (mole fraction)

>>> print(df.to_string())
       molecule_smiles  endpoint_value
0  Cc1ccc2cc(Br)ccc2n1        0.000849
